# system tested: endogenously expressed human MSR1 on PMA-treated THP-1 cells (human) (UniProt P21757)
# Sequence (P21757 whole entry): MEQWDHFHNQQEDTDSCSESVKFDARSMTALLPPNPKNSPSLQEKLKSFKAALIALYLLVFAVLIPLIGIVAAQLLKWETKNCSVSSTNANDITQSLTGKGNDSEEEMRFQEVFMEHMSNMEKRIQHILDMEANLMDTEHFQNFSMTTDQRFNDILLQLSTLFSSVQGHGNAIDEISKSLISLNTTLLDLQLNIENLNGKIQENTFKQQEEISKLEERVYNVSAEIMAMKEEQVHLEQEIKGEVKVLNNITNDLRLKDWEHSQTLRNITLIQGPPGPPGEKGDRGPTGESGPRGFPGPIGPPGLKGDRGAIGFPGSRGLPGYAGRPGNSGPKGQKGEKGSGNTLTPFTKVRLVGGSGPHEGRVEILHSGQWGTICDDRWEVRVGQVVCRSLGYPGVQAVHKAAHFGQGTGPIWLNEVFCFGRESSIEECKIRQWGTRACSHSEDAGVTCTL
# experimental details: ECL cell binding, PMA-treated THP-1 cells, 11 nM
endpoint label: ratio of binding signal (RLU) to isotype control (fold)

H2aM25700N (antibody, mouse IgG2a, V domains shown) VH: QVQLVQSGSEVKKPGASVKVSCKVSGYTLTELSIHWVRQAPGKGLEWMGGFDPEDGETIYAQKFRGRVTMTEDISPDTAYMELSSLRSEDTAVYYCATPRYCNNGICYDYWGQGTLVTVSS VL: DIQMTQSPSSLSASIGDRVTITCRASQSISSYLNWYQQKPGKAPMLLIYAASSLQSGVPSRFSGSGSGTDFTLTISSLQTEDFATYYCQQSYSTPPITFGQGTRLEIKR = 3
H1H21231N-N297Q (antibody, human IgG1, V domains shown) VH: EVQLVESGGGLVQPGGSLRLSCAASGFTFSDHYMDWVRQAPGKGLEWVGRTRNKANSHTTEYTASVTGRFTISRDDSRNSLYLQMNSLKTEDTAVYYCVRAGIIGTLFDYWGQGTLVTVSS VL: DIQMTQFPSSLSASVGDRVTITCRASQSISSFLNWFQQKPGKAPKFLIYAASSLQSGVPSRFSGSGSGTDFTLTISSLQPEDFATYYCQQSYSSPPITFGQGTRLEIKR = 45
H1H27747P-N297Q (antibody, human IgG1, V domains shown) VH: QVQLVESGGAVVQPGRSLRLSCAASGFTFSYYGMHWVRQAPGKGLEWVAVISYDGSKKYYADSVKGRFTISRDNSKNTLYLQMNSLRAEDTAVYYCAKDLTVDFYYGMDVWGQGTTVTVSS VL: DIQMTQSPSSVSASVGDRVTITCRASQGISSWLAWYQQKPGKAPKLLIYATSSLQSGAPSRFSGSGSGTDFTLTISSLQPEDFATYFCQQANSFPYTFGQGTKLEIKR = 13
